- study system: E. coli RNase P holoenzyme (M1 P RNA + rnpA protein) (UniProt P0A7Y8)
- Sequence: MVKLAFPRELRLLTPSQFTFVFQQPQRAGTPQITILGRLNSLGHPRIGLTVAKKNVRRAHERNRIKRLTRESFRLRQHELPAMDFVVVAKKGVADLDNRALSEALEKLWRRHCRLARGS
- protocol summary: relative kcat/Km (krel) vs genomic leader AAAGAU (relative (reference leader = 1)); higher = faster RNase P cleavage
- experimental setup: fraction of substrate reacted: ~13-16% (15.68% repeat 1, 13.17% repeat 2)
In all, about 4,100 sequences were measured (“relative kcat/Km (krel) vs genomic leader AAAGAU”: median about 1.7, highest 2% from about 6.5 on). What follows is part of a selection rich in the highest values, with near analogues and random picks from the rest.
Outcome label depends on relative kcat/Km relative to 3: at/above gives Satisfied, below gives Not satisfied.

Challenge: Reported relative kcat/Km reaches at least 3 for `GACAAA` ?
Response given: Satisfied

Challenge: Reported relative kcat/Km reaches at least 3 for `CACACT` ?
Response given: Satisfied

Challenge: Reported relative kcat/Km reaches at least 3 for `AATTAG` ?
Response given: Not satisfied

Challenge: Reported relative kcat/Km reaches at least 3 for `GACGAA` ?
Response given: Satisfied

Challenge: Reported relative kcat/Km reaches at least 3 for `CGCCGC` ?
Response given: Satisfied

Challenge: Reported relative kcat/Km reaches at least 3 for `CACCGC` ?
Response given: Satisfied

Next up:
Challenge: Reported relative kcat/Km reaches at least 3 for `GTCACC` ?
Response given: Satisfied
